In this section, each of the compounds is paired with its reported Papp.
Assay: Caco-2 permeability assay (CacoReady kit)
Type: in vitro ADME
Conditions: human
METRIC NAME: Papp

>  <COMPOUND>
COC(=O)/C=C/CC[C@H](NC(=O)c1snnc1C)C(=O)Nc1cccn(CC(=O)NC2C3CC4CC(C3)CC2C4)c1=O (some centres unmarked) [III-118]

>  <METRIC NAME>
Papp

>  <RESULT>
< 1 ×10⁻⁶ cm/s

$$$$
>  <COMPOUND>
COC(=O)/C=C/CC[C@H](NC(=O)c1cncn1C)C(=O)Nc1cccn(CC(=O)N[C@@H]2C[C@H]3CC[C@@H]2C3)c1=O [III-62]

>  <METRIC NAME>
Papp

>  <RESULT>
< 1 ×10⁻⁶ cm/s

$$$$
>  <COMPOUND>
COC(=O)/C=C/CC[C@H](NC(=O)[C@@H]1C[C@H](Br)CN1)C(=O)Nc1cccn(CC(=O)NC2C3CC4CC(C3)CC2C4)c1=O (some centres unmarked) [III-27]

>  <METRIC NAME>
Papp

>  <RESULT>
< 1 ×10⁻⁶ cm/s

$$$$
>  <COMPOUND>
COC(=O)/C=C/CC[C@H](NC(=O)c1cc2ccccc2s1)C(=O)Nc1cccn(CC(=O)NC2C3CC4CC(C3)CC2C4)c1=O (some centres unmarked) [III-5]

>  <METRIC NAME>
Papp

>  <RESULT>
1 to 10 ×10⁻⁶ cm/s

$$$$
>  <COMPOUND>
COC(=O)/C=C/CC[C@H](NC(=O)c1ccc2occc2c1)C(=O)Nc1cccn(CC(=O)NC2C3CC4CC2CC(NC(C)=O)(C4)C3)c1=O (some centres unmarked) [III-165]

>  <METRIC NAME>
Papp

>  <RESULT>
< 1 ×10⁻⁶ cm/s

$$$$
>  <COMPOUND>
COC(=O)/C=C/CC[C@H](NC(=O)c1c(C)noc1C)C(=O)Nc1cccn(CC(=O)NC2C3CCCC2CC3)c1=O (some centres unmarked) [III-135]

>  <METRIC NAME>
Papp

>  <RESULT>
1 to 10 ×10⁻⁶ cm/s

$$$$
>  <COMPOUND>
COC(=O)/C=C/CC[C@H](NC(=O)c1cncc(C(=O)O)c1)C(=O)Nc1cccn(CC(=O)NC2C3CC4CC(C3)CC2C4)c1=O (some centres unmarked) [III-35]

>  <METRIC NAME>
Papp

>  <RESULT>
< 1 ×10⁻⁶ cm/s

$$$$
>  <COMPOUND>
COC(=O)/C=C/CC[C@H](NC(=O)c1nonc1N)C(=O)Nc1cccn(CC(=O)NC23CC(C2)C3)c1=O [III-160]

>  <METRIC NAME>
Papp

>  <RESULT>
< 1 ×10⁻⁶ cm/s

$$$$
>  <COMPOUND>
CC(=O)/C=C/CC[C@H](NC(=O)c1ncn(C)n1)C(=O)Nc1cccn(CC(=O)NC2C3CCCC2CC3)c1=O (some centres unmarked) [III-159]

>  <METRIC NAME>
Papp

>  <RESULT>
< 1 ×10⁻⁶ cm/s

$$$$
>  <COMPOUND>
COC(=O)/C=C/CC[C@H](NC(=O)c1cnc(NC(C)=O)s1)C(=O)Nc1cccn(CC(=O)NC23CC(C2)C3)c1=O [III-162]

>  <METRIC NAME>
Papp

>  <RESULT>
< 1 ×10⁻⁶ cm/s

$$$$
>  <COMPOUND>
COC(=O)/C=C/CC[C@H](NC(=O)c1ccn(C)n1)C(=O)Nc1cccn(CC(=O)NC2C3CC4CC(C3)CC2C4)c1=O (some centres unmarked) [III-129]

>  <METRIC NAME>
Papp

>  <RESULT>
< 1 ×10⁻⁶ cm/s

$$$$

====

In this section, each of the molecules is paired with its reported logD.
Experiment: Log D shake flask method (octanol / PBS pH 7.4, HPLC)
Assay type: physicochemical
Settings: octanol/phosphate-buffered saline (PBS); octanol / PBS pH 7.4, shake flask

>  <MOLECULE>
COC(=O)/C=C/CC[C@H](NC(=O)c1ccnn1C)C(=O)Nc1cccn(CC(=O)NC2C3CC4CC(C3)CC2C4)c1=O (stereo partly drawn)

>  <logD>
< 1

$$$$
>  <MOLECULE>
Cc1nc2ncccc2cc1C(=O)N[C@@H](CC/C=C/C(=O)NC1CCCC1)C(=O)Nc1cccn(CC(=O)NC23CC(C2)C3)c1=O

>  <logD>
< 1

$$$$
>  <MOLECULE>
COC(=O)/C=C/CC[C@H](NC(=O)c1oc2ccccc2c1C)C(=O)Nc1cccn(CC(=O)NC2(C(=O)OC)C3CC4CC(C3)CC2C4)c1=O (stereo partly drawn)

>  <logD>
3 to 5

$$$$

====

Assay: Log D shake flask method (octanol / PBS pH 7.4, HPLC)
Type: physicochemical
Conditions: octanol/phosphate-buffered saline (PBS); octanol / PBS pH 7.4, shake flask

>  <COMPOUND>
COC(=O)/C=C/CC[C@H](NC(=O)c1nc2ccccc2[nH]1)C(=O)Nc1cccn(CC(=O)NC2C3CC4CC(C3)CC2C4)c1=O (stereo partly drawn)

>  <logD>
3 to 5

$$$$
>  <COMPOUND>
COC(=O)/C=C/CC[C@H](NC(=O)c1ccncc1)C(=O)Nc1cccn(CC(=O)NC2C3CC4CC(C3)CC2C4)c1=O (stereo partly drawn)

>  <logD>
3 to 5

$$$$
>  <COMPOUND>
COC(=O)/C=C/CC[C@H](NC(=O)c1nc(C2(C)CC2)no1)C(=O)Nc1cccn(CC(=O)NC2C3CC4CC2CC(C(N)=O)(C4)C3)c1=O (stereo partly drawn)

>  <logD>
< 1

$$$$
>  <COMPOUND>
COC(=O)/C=C/CC[C@H](NC(=O)c1cc2c(Br)cccc2o1)C(=O)Nc1cccn(CC(=O)NC2C3CC4CC(C3)CC2C4)c1=O (stereo partly drawn)

>  <logD>
3 to 5

$$$$
>  <COMPOUND>
COC(=O)/C=C/CC[C@H](NC(=O)c1oc2ccccc2c1C)C(=O)Nc1cccn(CC(=O)NCC23CC4CC(CC(C4)C2)C3)c1=O

>  <logD>
3 to 5

$$$$
>  <COMPOUND>
COC(=O)/C=C/CC[C@H](NC(=O)c1oc2ccccc2c1C)C(=O)Nc1cccn(CC23CC4CC(CC(Br)(C4)C2)C3)c1=O

>  <logD>
3 to 5

$$$$

====

Experiment: Log D shake flask method (octanol / PBS pH 7.4, HPLC)
Assay type: physicochemical
Conditions: octanol/phosphate-buffered saline (PBS); octanol / PBS pH 7.4, shake flask
In this section, each of the compounds is paired with its reported logD.
METRIC NAME: logD

>  <COMPOUND>
COC(=O)/C=C/CC[C@H](NC(=O)c1nc[nH]n1)C(=O)Nc1cccn(CC(=O)NC2C3CC4CC(C3)CC2C4)c1=O (stereo partly drawn)

>  <RESULT>
1 to 3

$$$$
>  <COMPOUND>
COC(=O)/C=C/CC[C@H](NC(=O)c1snnc1C)C(=O)Nc1cccn(CC(=O)NC2C3CC4CC(C3)CC2C4)c1=O (stereo partly drawn)

>  <RESULT>
1 to 3

$$$$
>  <COMPOUND>
COC(=O)/C=C/CC[C@H](NC(=O)C1Cc2ccccc2C1)C(=O)Nc1cccn(CC(=O)NC2C3CC4CC(C3)CC2C4)c1=O (stereo partly drawn)

>  <RESULT>
3 to 5

$$$$
>  <COMPOUND>
CCC12CC3CC(C1)CC(NC(=O)Cn1cccc(NC(=O)[C@H](CC/C=C/C(=O)OC)NC(=O)c4oc5ccccc5c4C)c1=O)(C3)C2

>  <RESULT>
3 to 5

$$$$
>  <COMPOUND>
COC(=O)/C=C/CC[C@H](NC(=O)c1oc2ccccc2c1C)C(=O)Nc1cccn(CC(=O)N[C@]23C[C@H]4C5CC6CC4[C@@H](C2)[C@@H](C6)[C@@H]5C3)c1=O (stereo in doubt)

>  <RESULT>
3 to 5

$$$$
>  <COMPOUND>
Cc1cn2c(C(=O)N[C@@H](CC/C=C/C(=O)NC(C)C)C(=O)Nc3cccn(CC(=O)NC45CC(C4)C5)c3=O)csc2n1

>  <RESULT>
< 1

$$$$

====

Molecular target: recombinant human transglutaminase 2 (Homo sapiens, UniProt P21980)
Sequence (P21980 whole entry): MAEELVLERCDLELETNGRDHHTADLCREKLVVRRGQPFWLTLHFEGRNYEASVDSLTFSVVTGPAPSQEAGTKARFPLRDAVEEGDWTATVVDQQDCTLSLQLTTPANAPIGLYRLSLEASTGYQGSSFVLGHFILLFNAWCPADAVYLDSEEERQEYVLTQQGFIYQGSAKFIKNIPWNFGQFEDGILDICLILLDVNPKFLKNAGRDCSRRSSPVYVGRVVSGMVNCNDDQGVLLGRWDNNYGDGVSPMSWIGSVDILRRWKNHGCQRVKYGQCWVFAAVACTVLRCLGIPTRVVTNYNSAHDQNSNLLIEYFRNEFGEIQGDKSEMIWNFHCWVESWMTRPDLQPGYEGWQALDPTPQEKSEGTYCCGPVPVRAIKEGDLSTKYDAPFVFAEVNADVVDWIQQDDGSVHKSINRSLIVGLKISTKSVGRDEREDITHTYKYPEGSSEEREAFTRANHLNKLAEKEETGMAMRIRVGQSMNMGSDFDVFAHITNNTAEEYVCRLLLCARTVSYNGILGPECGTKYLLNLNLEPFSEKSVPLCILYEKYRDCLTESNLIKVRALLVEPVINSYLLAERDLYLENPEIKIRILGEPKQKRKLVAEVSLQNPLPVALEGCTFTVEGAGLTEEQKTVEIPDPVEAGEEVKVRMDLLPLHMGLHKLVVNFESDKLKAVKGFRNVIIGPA
Assay: Transglutaminase assay (dansylcadaverine incorporation into dimethylcasein, DCC-assay)
Settings: recombinant human TG2 10 nM, dansylcadaverine/dimethylcasein, 37° C.
METRIC NAME: IC50

>  <COMPOUND>
COC(=O)/C=C/CC[C@H](NC(=O)c1cncn1C)C(=O)Nc1cccn(CC23CC4CC(CC(C4)C2)C3)c1=O

>  <TESTED SYSTEM>
recombinant human transglutaminase 2 (Homo sapiens, UniProt P21980)

>  <RESULT>
250 to 1500 nM

$$$$
>  <COMPOUND>
COC(=O)/C=C/CC[C@H](NC(=O)c1cnnn1C)C(=O)Nc1cccn(CC(=O)N[C@@H]2C[C@H]3CC[C@@H]2C3)c1=O

>  <TESTED SYSTEM>
recombinant human transglutaminase 2 (Homo sapiens, UniProt P21980)

>  <RESULT>
< 25 nM

$$$$
>  <COMPOUND>
COC(=O)/C=C/CC[C@H](NC(=O)[C@@H]1CCCNC1)C(=O)Nc1cccn(CC(=O)NC2C3CC4CC(C3)CC2C4)c1=O (stereo partly shown)

>  <TESTED SYSTEM>
recombinant human transglutaminase 2 (Homo sapiens, UniProt P21980)

>  <RESULT>
25 to 250 nM

$$$$
>  <COMPOUND>
COC(=O)/C=C/CC[C@H](NC(=O)c1ncns1)C(=O)Nc1cccn(CC(=O)NC23CC(C2)C3)c1=O

>  <TESTED SYSTEM>
recombinant human transglutaminase 2 (Homo sapiens, UniProt P21980)

>  <RESULT>
25 to 250 nM

$$$$
